test: Human HepG2 cell viability assay in 384 well format; type: toxicity, cell-based; set-up: dose 125 nL, time 70.5 hour; concentration not given beside the values; conditions: HepG2 cells, read-out: Inhibition
Kindly state cytotoxicity at 70.5 h for each of the entries shown.

Worked examples, 5 compounds total:
> print(dat)
                                   compound        measurement.name  result
1  Cc1nc(O)c2nnn(C[C@H]3CCCN3C(=O)c3ccc(F)cc3)c2n1  cytotoxicity at 70.5 h  -4.53%
2  CS(=O)(=O)N1CCC2(COCc3cnc(-c4ccccc4)nc32)C1 (stereo not drawn)  cytotoxicity at 70.5 h  -10.2%
3  CS(=O)(=O)CC1(CNc2c(C#N)cnc3ccc(Cl)cc23)CC1  cytotoxicity at 70.5 h  -5.19%
4  Cn1nc(C2CC2)c2c1NC(=O)CC2c1ccc(CN2CCCCC2)s1 (stereo not drawn)  cytotoxicity at 70.5 h  -3.05%
5  O=C(c1cc2c(s1)CCOC2)N1CCCCC1Cn1cccn1 (stereo not drawn)  cytotoxicity at 70.5 h  -7.81%

# map each compound to its cytotoxicity at 70.5 h
1. COc1cccc(CCn2ccnc2-c2cn(C3CCNCC3)nn2)c1
2. CCS(=O)(=O)NCc1nc(C)cc(N2CCOCC2)n1
3. Cc1nn(C)c(Cl)c1C1CCCN1Cc1nc(C2CC2)no1 (stereo not drawn)

Result:
1. 28.6%
2. -6.72%
3. -7.26%
